Hi there, I'd appreciate the recorded Time to peak effect for every entry that follows.
# Tested on: mechanical (tactile) allodynia in streptozotocin diabetic rats
# STUDY CONDITIONS: i.p., Table III

# example entries with known answers
{"COMPOUND": "CCN(CC)CC(=O)Nc1c(C)cccc1C [Lidocaine, lidocaine]", "Time to peak effect": "30 min"}
{"COMPOUND": "Cc1cccc(C)c1OC[C@@H](C)N [R-Mexiletine, (R)-mexiletine]", "Time to peak effect": "15 to 30 min"}
{"COMPOUND": "Cc1cccc(C)c1OC[C@H](C)N [S-Mexiletine, (S)-mexiletine]", "Time to peak effect": "15 to 45 min"}

Okay, now this compound:
Challenge: State its Time to peak effect on mechanical (tactile) allodynia in streptozotocin diabetic rats: Cc1cccc(C)c1OCC(C)N (racemic) [RS-Mexiletine, (R,S)-mexiletine]
Response given: 30 to 45 min

====

# Tested on: mechanical (tactile) allodynia in nerve ligation (Chung) model rats
# METHOD: animal or person
# STUDY CONDITIONS: Chung model rats, i.p., Table I
MEASURE NAME: Time to peak effect (min)
One number for each entry, in min.

Hi! Can you tell me Time to peak effect for each of these compounds?
1. CCN(CC)CC(=O)Nc1c(C)cccc1C
2. Cc1cccc(C)c1OC[C@H](C)N [S-Mexiletine, (S)-mexiletine]

Response given:
1. 15
2. 15

Challenge: State its Time to peak effect on mechanical (tactile) allodynia in nerve ligation (Chung) model rats: Cc1cccc(C)c1OC[C@@H](C)N [R-Mexiletine, (R)-mexiletine]
Response given: 30
